# Tested on: ACHN renal
# assay_method_text: NCI-60 one-dose screen, 48 h (100 = growth as untreated, 0 = no growth, -100 = all killed)
# condition_label: 10 µM
# Description: Growth inhibition of the ACHN human tumor cell line is measured as a screen for anti-cancer activity. Cells are grown in 96 well plates and exposed to the test compound for 48 hours. Compounds are tested at a single concentration, which is 10^-5 M for most compounds. The reported endpoint is percent growth (GI% or GIPRCNT), where numbers from 0 - 100% represent growth inhibition, and numbers from -100% - 0 represent cell death. For example, a value of 40 represents 60% growth inhibition. […]
About 83,000 compounds went through this panel and 20% of them were active in at least one assay; those are over-represented in the sample as a whole.
measurement_type: growth (%)

| molecule | recorded_value |
| --- | --- |
| COc1cc(Cl)cc(-c2nn(-c3cccc(NC(=O)Nc4ccc(Cl)c(C(F)(F)F)c4)c3)cc2-c2ccncc2)c1 | 8.78 |
| O=S(=O)(NCCCNc1nccc(-c2c(-c3ccc(F)cc3)nc3sccn23)n1)c1ccc(F)cc1 | 30.8 |
| CN(C)C(=S)N/N=C\C=N/NC(=S)N(C)C | 80 |
| O=C(/C(=C/c1ccccc1)CN1CCCCC1)c1ccccc1 | -59.3 |
| O=C(CC(c1ccccc1)N1CCOCC1)c1ccccc1 (stereo not given) | 103 |
| Cc1cccc(C)c1NC(=O)c1sc2nc3c(cc2c1N)C(=O)CCC3 | 89.6 |
| COc1ccc2c(c1)nc(N)c1c3cccnc3cn21 | 37.8 |
| c1ccc(C(NC2CC3CCC2C3)c2ccccc2)cc1 (stereo not given) | 98.9 |
| Cc1ccc(S(=O)(=O)OCCN(CCOS(=O)(=O)c2ccc(C)cc2)c2c[nH]c(=O)[nH]c2=O)cc1 | 99 |
| COc1ccc(S(=O)(=O)Nc2c(/C=C\c3cc(OC)c(OC)c(OC)c3)ccc(OC)c2O)cc1 | 22.7 |
